Values were extracted from patent US8278465B2.

List of AUC values.
- assay: Calculation of AUC value (plasma concentration after oral administration)
- Format: in vivo
- statedConditions: BALB/c (nu/nu), mouse, mice, 100 mg/kg body weight, plasma 15 min to 24 h, trapezoidal method, read-out: AUC (area under the blood concentration-time curve)
Give the number; µM·h is assumed, so skip it.

Cc1c(Cc2cccc(NS(N)(=O)=O)c2F)c(=O)oc2cc(Oc3ncccn3)ccc12 :: 811

Input: Quick one: AUC of `CNS(=O)(=O)Nc1cc(Cc2c(C)c3cc(Cl)c(Oc4ncccn4)cc3oc2=O)ccn1` ?
Output: 252

====

- System: human colon cancer cell line HCT116
- assay: Measurement of cell proliferation inhibitory activity (Cell Counting Kit-8)
- Assay type: cell-based
- statedConditions: Homo sapiens, HCT-116, 96 h; HCT116, 4 days incubation, Table 1-2; read-out: IC50 (50% proliferation inhibitory concentration)
measure: IC50 (nM)
Please give a number only; it is taken to be in nM.

Please review the following examples before continuing.
CNS(=O)(=O)Nc1nccc(Cc2c(C)c3cc(C)c(Oc4ncccn4)cc3oc2=O)c1F [Compound 1j-2-19-2] :: 17.8
Cc1c(Cc2cccc(NS(N)(=O)=O)c2F)c(=O)oc2cc(Oc3nccs3)ccc12 [Compound 1j-3-4-1] :: 22.5
CNS(=O)(=O)Nc1cc(Cc2c(C)c3cc(F)c(OC(=O)N(C)C)cc3oc2=O)ccn1 [Compound 1j-1-11-2] :: 18.3
CNS(=O)(=O)Nc1cc(Cc2c(C)c3cc(C)c(Oc4nccs4)cc3oc2=O)ccn1 [Compound 1j-3-20-2] :: 8.9
CNS(=O)(=O)Nc1nccc(Cc2c(C)c3cc(F)c(Oc4ncccn4)cc3oc2=O)c1F [Compound 1j-2-17-2] :: 21.1
CNS(=O)(=O)Nc1cc(Cc2c(C)c3cc(Cl)c(OC(=O)N(C)C)cc3oc2=O)ccn1 [Compound 1j-1-12-2] :: 6.4

Consider the record given below.
Input: I would be grateful if you could share the reported IC50 for CCc1c(Cc2ccnc(NS(=O)(=O)NC)c2F)c(=O)oc2cc(Oc3ncccn3)c(C)cc12 [Compound 1j-2-19-2Me] .
Output: 8.4

====

// reported AUC per item
- assay: Calculation of AUC value (plasma concentration after oral administration)
- Assay type: in vivo
- statedConditions: BALB/c (nu/nu), mouse, mice, 100 mg/kg body weight, plasma 15 min to 24 h, trapezoidal method, read-out: AUC (area under the blood concentration-time curve)
Numbers only here, please. The scale is µM·h.

Observe how each entry below is paired with its result.
CNC(=O)CS(=O)(=O)Nc1cccc(Cc2c(C)c3ccc(Oc4nccs4)cc3oc2=O)c1F :: 367
CNS(=O)(=O)Nc1nccc(Cc2c(C)c3ccc(Oc4ncccn4)cc3oc2=O)c1F :: 3200
CNS(=O)(=O)Nc1cccc(Cc2c(C)c3cc(C)c(Oc4nccs4)cc3oc2=O)c1 :: 149
CNS(=O)(=O)Nc1cccc(Cc2c(CF)c3ccc(Oc4ncccn4)cc3oc2=O)c1F :: 317
CNS(=O)(=O)Nc1cccc(Cc2c(C)c3cc(F)c(Oc4ncccn4)cc3oc2=O)c1F :: 344
CNS(=O)(=O)Nc1cccc(Cc2c(C)c3ccc(Oc4nccs4)cc3oc2=O)c1 :: 199

Input: Tell me the measured AUC of `CNS(=O)(=O)Nc1cccc(Cc2c(C)c3ccc(Oc4ncccn4)cc3oc2=O)c1F` , please.
Output: 425
